- TEST_TARGET: Human DYRK1A (Homo sapiens, UniProt Q13627)
- Construct: purchased Invitrogen PV3997
- PROTOCOL_DESCRIPTION: DYRK1A Kinase TR-FRET (IMAP-Tb) Assay
- Assay type: biochemical
- CONDITION_NOTES: TR-FRET (IMAP-Tb); ATP 70 μM; 37° C. 60 minutes; read-out: Enzyme IC50 (μM) DYRK1A
Would you kindly list IC50 for each of these molecules?
Please reply with the bare figure in µM and do not write the unit itself.

Quick note, IC50 for CN1CCN(c2ncc3cc(C(=O)Nc4cc(C(=O)NCc5cccc(Cl)c5)ccc4Cl)c(=O)[nH]c3n2)CC1 [Example 75] landed at 0.0211

Quick note, IC50 for COC(=O)c1ccc(C)c(NC(=O)c2cc3cnc(N4CCOCC4)nc3[nH]c2=O)c1 [Example 29] landed at 0.0859

Quick note, IC50 for O=C(NCc1cccc(Cl)c1)c1ccc(Cl)c(NC(=O)c2cc3cnc(N[C@H]4CC[C@H](O)CC4)nc3[nH]c2=O)c1 [Example 94] landed at 0.0245

Quick note, IC50 for COc1ncc2cc(C(=O)Nc3cc(C(=O)NCc4cccc(C(F)(F)F)c4)ccc3Cl)c(=O)[nH]c2n1 [Example 59] landed at 0.0723

Quick note, IC50 for CSc1ncc2cc(C(=O)Nc3cc(C(=O)NC(CCO)c4ccccc4)ccc3Cl)c(=O)[nH]c2n1 (stereo not drawn) [Example 141] landed at 0.101

Quick note, IC50 for CN1CCN(CCCNc2ncc3cc(C(=O)Nc4cc(C(=O)NC(CN)c5ccccc5)ccc4Cl)c(=O)[nH]c3n2)CC1 (stereo not drawn) [Example 122] landed at 0.012

Quick note, IC50 for CC1(C)OCC(CNc2ncc3cc(C(=O)Nc4cc(C(=O)NCc5cccc(Cl)c5)ccc4Cl)c(=O)[nH]c3n2)O1 (stereo not drawn) [Example 124] landed at 0.113

Quick note, IC50 for COC(=O)c1ccc(Cl)c(NC(=O)c2cc3cnc(N4CCNCC4)nc3[nH]c2=O)c1 [Example 37] landed at 0.468

Quick note, IC50 for COC(=O)c1ccc(Br)c(NC(=O)c2cc3cnc(OC)nc3[nH]c2=O)c1 [Example 48] landed at 0.205

Quick note, IC50 for COc1ncc2cc(C(=O)Nc3cc(C(=O)NC(CN)c4cccc(Cl)c4)ccc3Cl)c(=O)[nH]c2n1 (stereo not drawn) [Example 85] landed at 0.03

Quick note, IC50 for CN(Cc1cccc(Cl)c1)C(=O)c1ccc(Cl)c(NC(=O)c2cc3cnc(N4CCCCC4)nc3[nH]c2=O)c1 [Example 64] landed at 0.903

Quick note, IC50 for COc1ncc2cc(C(=O)Nc3cc(C(=O)NCc4cccc(Cl)c4)ccc3C)c(=O)[nH]c2n1 [Example 62] landed at 0.119

Quick note, IC50 for O=C(NCc1cccc(Cl)c1)c1cc(NC(=O)c2cc3cnc(N4CCOCC4)nc3[nH]c2=O)c(Cl)cc1F [Example 144] landed at 0.205

Quick note, IC50 for COc1ncc2cc(C(=O)Nc3cc(C(=O)N[C@H](CN)c4cccc(Cl)c4)ccc3Cl)c(=O)[nH]c2n1 [Example 135] landed at 0.0109

Quick note, IC50 for COc1ncc2cc(C(=O)Nc3cc(C(=O)N(C)C)ccc3Cl)c(=O)[nH]c2n1 [Example 55] landed at 4.1

----------
- TEST_TARGET: Human DYRK1B (Homo sapiens, UniProt Q9Y463)
- Construct: purchased Invitrogen PR8350B (former PV4649)
- Sequence (Q9Y463 whole entry): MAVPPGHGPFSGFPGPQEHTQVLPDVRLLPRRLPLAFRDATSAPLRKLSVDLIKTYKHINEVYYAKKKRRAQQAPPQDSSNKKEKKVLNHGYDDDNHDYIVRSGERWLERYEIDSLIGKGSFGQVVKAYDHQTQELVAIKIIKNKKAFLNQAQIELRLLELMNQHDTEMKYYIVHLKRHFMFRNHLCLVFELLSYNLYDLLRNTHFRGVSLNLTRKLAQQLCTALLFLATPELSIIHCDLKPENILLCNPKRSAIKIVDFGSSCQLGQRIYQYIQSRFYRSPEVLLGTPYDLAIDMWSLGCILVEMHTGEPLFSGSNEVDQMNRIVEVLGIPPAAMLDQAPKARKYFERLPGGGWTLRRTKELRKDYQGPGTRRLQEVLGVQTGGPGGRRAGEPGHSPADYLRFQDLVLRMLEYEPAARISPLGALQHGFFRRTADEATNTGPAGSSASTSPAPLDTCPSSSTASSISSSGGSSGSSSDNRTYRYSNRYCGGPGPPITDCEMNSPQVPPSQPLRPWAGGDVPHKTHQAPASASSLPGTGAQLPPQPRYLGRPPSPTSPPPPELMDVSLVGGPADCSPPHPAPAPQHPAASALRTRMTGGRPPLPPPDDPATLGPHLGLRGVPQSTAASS
- PROTOCOL_DESCRIPTION: DYRK1B Kinase TR-FRET (IMAP-Tb) Assay
- Format: biochemical
- CONDITION_NOTES: TR-FRET (IMAP-Tb); ATP 70 μM; 37° C. 60 minutes; read-out: Enzyme IC50 (μM) DYRK1B
Counter-ions that a name gives are not always drawn.
Would you kindly list IC50 for each of these compounds?
Please reply with the bare figure in µM and do not write the unit itself.

Quick note, IC50 for COc1ncc2cc(C(=O)Nc3cc(C(=O)NCc4cccc(C(F)(F)F)c4)ccc3Cl)c(=O)[nH]c2n1 [Example 59] landed at 0.222

Quick note, IC50 for O=C(NCc1cccc(Cl)c1)c1ccc(Cl)c(NC(=O)c2cc3cnc(NCCCN4CCOCC4)nc3[nH]c2=O)c1 [Example 90] landed at 0.0523

Quick note, IC50 for O=C(NCc1cccc(Cl)c1)c1ccc(Cl)c(NC(=O)c2cc3cnc(N4CCNCC4)nc3[nH]c2=O)c1 [Example 119, hydrochloride] landed at 0.135

Quick note, IC50 for O=C(NC(CCO)c1ccccc1)c1ccc(Cl)c(NC(=O)c2cc3cnc(N4C[C@H]5CC[C@@H](C4)O5)nc3[nH]c2=O)c1 (stereo partly shown) [Example 182] landed at 0.081

Quick note, IC50 for CN1CCN(CCNc2ncc3cc(C(=O)Nc4cc(C(=O)NCc5cccc(Cl)c5)ccc4Cl)c(=O)[nH]c3n2)CC1 [Example 100, hydrochloride] landed at 0.142

Quick note, IC50 for COc1ncc2cc(C(=O)Nc3cc(C(=O)NC4(c5ccccc5)CCNCC4)ccc3Cl)c(=O)[nH]c2n1 [Example 166] landed at 1.89

Quick note, IC50 for COc1ncc2cc(C(=O)Nc3cc(C(=O)N(C)C)ccc3Cl)c(=O)[nH]c2n1 [Example 55] landed at 1.37

----------
Would you kindly list inhibition at 10 µM for each of these molecules?
- TEST_TARGET: Human DYRK1A (Homo sapiens)
- Construct: purchased Invitrogen PV3997
- PROTOCOL_DESCRIPTION: DYRK1A Kinase TR-FRET (IMAP-Tb) Assay
- Type: biochemical
- CONDITION_NOTES: read-out: % inhibition of DYRK1A at 10 μM test compound concentration

Quick note, inhibition at 10 µM for COc1ncc2cc(C(=O)Nc3cc(C(=O)OCc4ccccc4)ccc3Cl)c(=O)[nH]c2n1 [Example 50] landed at 30%

Quick note, inhibition at 10 µM for COc1ncc2cc(C(=O)Nc3cc(C(=O)OCc4cccc(Cl)c4)ccc3Cl)c(=O)[nH]c2n1 [Example 53] landed at 32%

Quick note, inhibition at 10 µM for CCOCCNc1ncc2cc(C(=O)Nc3cc(C(=O)OC)ccc3Cl)c(=O)[nH]c2n1 [Example 42] landed at 60%

Quick note, inhibition at 10 µM for CC(NC(=O)c1ccc(Cl)c(NC(=O)c2cc3cnc(N4CCOCC4)nc3[nH]c2=O)c1)c1cccc(Cl)c1 (racemic) [Example 143] landed at 57%

----------
- Tested on: SW620 human colon cancer cells
- PROTOCOL_DESCRIPTION: SW620 Cell Viability Assay
- Assay type: cell-based
- CONDITION_NOTES: CellTiter-Glo; 4 days incubation; read-out: Cellular EC50 (μM) SW620
- Protocol: Some cells (S—) were allowed to attach for 24 hrs, serum starved for 48 hrs, and then followed with drug treatments Test Compound Solutions were Prepared in Regular Corresponding Media Supplemented with Serum 2. […]
RESULT_TYPE: EC50
Provide the measurement as a number trailed by its unit.

Let me check: CN1CCN(CCNc2ncc3cc(C(=O)Nc4cc(C(=O)NCc5cccc(Cl)c5)ccc4Cl)c(=O)[nH]c3n2)CC1 [Example 99] , system SW620 human colon cancer cells, measured EC50 is 0.0276 µM

----------
- TEST_TARGET: Human DYRK1B (Homo sapiens)
- Construct: purchased Invitrogen PR8350B (former PV4649)
- PROTOCOL_DESCRIPTION: DYRK1B Kinase TR-FRET (IMAP-Tb) Assay
- Format: biochemical
- CONDITION_NOTES: read-out: % inhibition of DYRK1B at 10 μM test compound concentration
RESULT_TYPE: inhibition at 10 µM (%)
Please reply with the bare figure in % and do not write the unit itself.

Quick note, inhibition at 10 µM for CN(Cc1cccc(Cl)c1)C(=O)c1ccc(Cl)c(NC(=O)c2cc3cnc(N4CCCCC4)nc3[nH]c2=O)c1 [Example 64] landed at 46.6

Quick note, inhibition at 10 µM for COc1ncc2cc(C(=O)Nc3cc(C(=O)N[C@@H](CCO)c4ccccc4)ccc3Cl)c(=O)[nH]c2n1 [Example 159] landed at 22

Quick note, inhibition at 10 µM for O=C(NCc1cccc(Cl)c1)c1cc(NC(=O)c2cc3cnc(N4CCOCC4)nc3[nH]c2=O)c(Cl)cc1F [Example 144] landed at 23

Quick note, inhibition at 10 µM for COC(=O)c1ccc(F)c(NC(=O)c2cc3cnc(OC)nc3[nH]c2=O)c1 [Example 43] landed at 41

Quick note, inhibition at 10 µM for COc1ncc2cc(C(=O)Nc3cc(C(=O)N(C)Cc4cccc(Cl)c4)ccc3C)c(=O)[nH]c2n1 [Example 63] landed at 28

Quick note, inhibition at 10 µM for CC(C)(C)CNC(=O)c1ccc(Cl)c(NC(=O)c2cc3cnc(N4CCOCC4)nc3[nH]c2=O)c1 [Example 142] landed at 44

Quick note, inhibition at 10 µM for CC(NC(=O)c1ccc(Cl)c(NC(=O)c2cc3cnc(N4CCOCC4)nc3[nH]c2=O)c1)c1cccc(Cl)c1 (racemic) [Example 143] landed at 24

Quick note, inhibition at 10 µM for COc1ncc2cc(C(=O)Nc3cc(C(=O)OCc4ccccc4)ccc3Cl)c(=O)[nH]c2n1 [Example 50] landed at 3

Quick note, inhibition at 10 µM for CCOCCNc1ncc2cc(C(=O)Nc3cc(C(=O)OC)ccc3Cl)c(=O)[nH]c2n1 [Example 42] landed at 39
